src = PubChem BioAssay (NCI)

- Tested on: HOP-62 NSCLC
- Experiment description: NCI-60 one-dose screen, 48 h
- Condition parameters: 10 µM unless noted
- Method: Growth inhibition of the HOP-62 human Non-Small Cell Lung tumor cell line is measured as a screen for anti-cancer activity. Cells are grown in 96 well plates and exposed to the test compound for 48 hours. Compounds are tested at a single concentration, which is 10^-5 M for most compounds. The reported endpoint is percent growth (GI% or GIPRCNT), where numbers from 0 - 100% represent growth inhibition, and numbers from -100% - 0 represent cell death. […]
The panel holds about 83,000 compounds, 20% with a hit somewhere; the sample as a whole holds those more often. Activity calls are given as the source filed them. The calls were made as follows: active = growth percent below 10; inactive = the rest.
Reply using exactly one outcome from 1 (active), 0 (inactive)

Study these solved cases before continuing.
Molecule	Study system	Cat
CC(=O)ON=C1C=CC(=C(C#N)c2ccccc2)C=C1	HOP-62 NSCLC	0
N#Cc1ccc([N+](=O)[O-])o1	HOP-62 NSCLC	0
COC(=O)[C@@]12OC[C@]34[C@H]([C@@H](O)[C@@H]1O)[C@@]1(C)[C@H](O)C(=O)C=C(C)[C@@H]1C[C@H]3OC(=O)C(OC(C)=O)[C@@H]24 (stereo not given in full)	HOP-62 NSCLC	1
Cc1ccc2c(ccc3c[n+]4c5ccccc5ccc4n32)c1	HOP-62 NSCLC	1

Exercise: I would be grateful if you could indicate the recorded call for CC(C)(C)c1ccc(O)c(C2CCCCC2)c1 .
Key: 0
